Items are presented alongside their recorded growth.
tested on: HL-60(TB) leukemia; experiment: NCI-60 one-dose screen, 48 h (100 = growth as untreated, 0 = no growth, -100 = all killed); conditions: 10 µM unless noted
The panel holds about 83,000 compounds, 20% with a hit somewhere; the sample as a whole holds those more often.
Form entry: value (%) — number only.

COc1ccc(-c2nc3sc(C)nn3c2-c2nc3cc(C)c(C)cc3[nH]2)cc1    112
O=C(Nc1ccc(OS(=O)(=O)c2ccc(F)cc2)cc1)C1CCCCCC1    56.4
CCCCCCCCCCNCCSS(=O)(=O)O    79
CCNc1nc(-c2ccc(Cl)c(OC)c2)c(-c2ccnc(NCCCNS(=O)(=O)c3ccc(Cl)cc3)n2)s1    34.9
Cc1nc2ncccc2nc1Nc1ccc(S(=O)(=O)Nc2cncs2)cc1    109

Give the measured growth of C=C1C(=O)O[C@H]2[C@H]1CC/C(Cn1cc(CNC(=O)c3cc4ccccc4[nH]3)nn1)=C\CC[C@@]1(C)O[C@@H]21 .
-20.8

Endpoint output: growth of COC1(OC)C2(Cl)C=C(c3ccccc3)C1(Cl)C(Cl)=C2Cl (stereo not given) . Value?
83.7

For the compound CCCCCCCCCCCCCCCC(N)c1ccccc1 (stereo not given) , what growth is on record?
-14.3

GET /values?readout=growth&item= Nc1ccc(S(=O)(=O)Nc2ncccn2)cc1
105

What value of growth has been recorded for this entry: Cc1cc(OI)c(C(C)C)cc1-c1cc(C(C)C)c(OI)cc1C
106

Request the reported growth associated with COc1ccc(C(=O)c2no[n+]([O-])c2C(=O)c2ccc(OC)cc2)cc1
-79.7

Request the reported growth associated with C=C(C)[C@@H]1CC[C@]2(C(=O)NCC(=O)OC)CC[C@]3(C)[C@H](CC[C@@H]4[C@@]5(C)Cc6c([nH]c7ccccc67)C(C)(C)[C@@H]5CC[C@]43C)[C@@H]12
64.8

Quick one: growth for CC(C)c1c(C(=O)Nc2ccccc2)c(-c2ccccc2)c(-c2ccc(F)cc2)n1CC[C@@H]1CC=CC(=O)O1 ?
-27.9

So what's the measured growth for this one? O=c1cc(/C=N\Nc2nc(-c3ccc(Cl)cc3Cl)cs2)c2cc(Cl)ccc2o1
92.3

Query (compound): O=C(Nc1ccccc1)Nc1cccc(-n2cc(-c3ccncc3)c(-c3ccc(O)c(Cl)c3)n2)c1 ; field requested: growth
37.5
